Where these numbers come from: the supplement of paper PMC11451515

System: NOMO1
EXPERIMENT SUMMARY: cell viability relative to DMSO control; higher = less cytotoxic
DETAILS: RPMI 5 mM glucose + 10% dialyzed FBS; 48 h; 0.000781 µM
RESULT TYPE: cell viability (%)
Expressed in %, but write only the number.

# COMPOUND, EXPERIMENTAL SYSTEM, UNITS OF MEASURE, cell viability
data = [
    ("CC(C)NCC(O)c1ccc(NS(C)(=O)=O)cc1 (stereo not given)", "NOMO1", "%", 87.9),
]

# evaluate next
Please report the recorded cell viability for `CCOC1=CC(=CC=C1C/2=N/[C@@](C)(C3=CC=C(Cl)C=C3)[C@](C)(N2C(=O)N4CCN(CC4)CC(=O)N5CCOCC5)C6=CC=C(Cl)C=C6)C(C)(C)C` .
92.6
